test system: recombinant human ACC2 (rhACC2) (Homo sapiens, UniProt O00763, V2141I)
Construct: a full length Cytomax clone of ACC2 was purchased from Cambridge Bioscience Limited
Sequence (O00763 whole entry V2141I): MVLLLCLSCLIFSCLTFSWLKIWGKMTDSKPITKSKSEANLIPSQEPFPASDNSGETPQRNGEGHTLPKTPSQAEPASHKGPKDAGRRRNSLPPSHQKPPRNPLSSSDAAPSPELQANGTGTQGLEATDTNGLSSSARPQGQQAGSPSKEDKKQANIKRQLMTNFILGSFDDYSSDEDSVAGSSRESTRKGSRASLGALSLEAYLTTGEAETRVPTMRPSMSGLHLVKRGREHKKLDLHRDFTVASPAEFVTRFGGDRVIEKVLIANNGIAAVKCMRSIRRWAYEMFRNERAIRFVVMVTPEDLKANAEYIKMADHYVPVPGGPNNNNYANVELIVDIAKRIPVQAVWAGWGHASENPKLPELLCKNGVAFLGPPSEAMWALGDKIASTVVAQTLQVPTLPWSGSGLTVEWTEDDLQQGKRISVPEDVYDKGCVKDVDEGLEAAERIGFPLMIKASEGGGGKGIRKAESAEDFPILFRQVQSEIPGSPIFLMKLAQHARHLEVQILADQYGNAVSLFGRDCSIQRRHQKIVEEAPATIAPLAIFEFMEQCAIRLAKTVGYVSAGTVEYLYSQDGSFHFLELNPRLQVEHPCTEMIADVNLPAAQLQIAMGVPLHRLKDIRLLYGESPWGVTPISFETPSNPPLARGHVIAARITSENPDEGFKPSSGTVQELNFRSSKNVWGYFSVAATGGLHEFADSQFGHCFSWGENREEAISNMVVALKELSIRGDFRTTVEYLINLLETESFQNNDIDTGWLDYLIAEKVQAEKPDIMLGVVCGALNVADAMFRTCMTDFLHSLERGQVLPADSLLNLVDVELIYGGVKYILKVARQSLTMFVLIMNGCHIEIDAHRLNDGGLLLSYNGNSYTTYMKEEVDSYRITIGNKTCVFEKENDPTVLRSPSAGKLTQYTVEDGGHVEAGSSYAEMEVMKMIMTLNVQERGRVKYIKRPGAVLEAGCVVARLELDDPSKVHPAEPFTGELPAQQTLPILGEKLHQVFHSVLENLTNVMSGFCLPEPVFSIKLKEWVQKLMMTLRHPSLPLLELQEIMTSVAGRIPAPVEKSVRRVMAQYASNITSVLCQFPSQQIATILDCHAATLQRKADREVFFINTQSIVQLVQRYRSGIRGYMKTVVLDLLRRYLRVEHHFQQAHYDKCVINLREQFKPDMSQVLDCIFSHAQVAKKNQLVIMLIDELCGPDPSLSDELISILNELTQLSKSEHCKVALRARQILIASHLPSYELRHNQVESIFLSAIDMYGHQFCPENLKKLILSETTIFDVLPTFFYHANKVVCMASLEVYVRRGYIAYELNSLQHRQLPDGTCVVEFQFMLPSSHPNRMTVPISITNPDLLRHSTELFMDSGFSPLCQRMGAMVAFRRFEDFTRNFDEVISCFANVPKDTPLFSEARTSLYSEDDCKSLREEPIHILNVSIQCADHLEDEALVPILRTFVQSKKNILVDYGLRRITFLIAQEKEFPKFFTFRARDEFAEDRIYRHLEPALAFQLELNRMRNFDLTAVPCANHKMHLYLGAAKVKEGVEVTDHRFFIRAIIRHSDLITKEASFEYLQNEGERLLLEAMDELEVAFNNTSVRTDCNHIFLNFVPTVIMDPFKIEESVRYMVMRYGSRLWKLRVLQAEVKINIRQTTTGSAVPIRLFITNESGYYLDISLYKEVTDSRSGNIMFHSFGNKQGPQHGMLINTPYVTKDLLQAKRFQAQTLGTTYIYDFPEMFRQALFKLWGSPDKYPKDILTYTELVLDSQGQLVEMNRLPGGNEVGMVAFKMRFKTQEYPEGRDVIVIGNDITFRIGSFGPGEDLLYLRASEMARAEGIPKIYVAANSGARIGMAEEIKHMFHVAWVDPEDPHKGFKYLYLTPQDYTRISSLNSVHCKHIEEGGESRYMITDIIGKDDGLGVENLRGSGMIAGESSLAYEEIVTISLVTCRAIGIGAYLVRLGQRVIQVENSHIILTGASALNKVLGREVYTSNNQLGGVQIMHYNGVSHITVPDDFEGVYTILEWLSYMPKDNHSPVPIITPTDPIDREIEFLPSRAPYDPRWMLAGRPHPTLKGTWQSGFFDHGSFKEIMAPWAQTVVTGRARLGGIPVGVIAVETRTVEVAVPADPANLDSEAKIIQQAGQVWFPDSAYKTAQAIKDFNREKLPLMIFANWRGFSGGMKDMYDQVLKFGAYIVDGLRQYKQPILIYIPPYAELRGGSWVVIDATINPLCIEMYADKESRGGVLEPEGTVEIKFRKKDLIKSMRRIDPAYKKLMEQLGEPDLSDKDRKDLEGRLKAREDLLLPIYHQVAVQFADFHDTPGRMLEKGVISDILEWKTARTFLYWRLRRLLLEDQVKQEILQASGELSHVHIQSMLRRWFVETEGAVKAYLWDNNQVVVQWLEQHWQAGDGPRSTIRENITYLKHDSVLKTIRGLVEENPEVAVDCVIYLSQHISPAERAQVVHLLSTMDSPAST
assay method text: recombinant hACC2 Transcreener assay (direct inhibition of ACC2 activity)
test parameters: Transcreener ADP detection FP assay, 50 μM ATP, 30 μM acetyl-CoA, 50 min at 25° C.
pIC50: −log10 of the molar value.
measurement label: pIC50

| molecule | experimental value |
| --- | --- |
| CC(C)n1ncc2c1C(=O)CC1(CCN(C(=O)c3cccc(-c4ncc[nH]4)c3)CC1)C2 [Example 11A-41] | 7.52 |
| CC(C)n1ncc2c1C(=O)CC1(CCN(C(=O)c3cc(F)c4[nH]ncc4c3)CC1)C2 | 7.46 |
| Cc1cc(C(=O)N2CCC3(CC2)CC(=O)c2c(cnn2C2CCC2)C3)ccc1Cl | 6.81 |

(a) CC(C)(C)n1ncc2c1C(=O)CC1(CCN(C(=O)c3cccnc3C(N)=O)CC1)C2 [Example 11A-11]
(b) Cc1nc2ccc(C(=O)N3CCC4(CC3)CC(=O)c3c(cnn3C3COC3)C4)cc2[nH]1
(c) Cn1c(=O)[nH]c2cc(C(=O)N3CCC4(CC3)CC(=O)c3c(cnn3C(C)(C)C)C4)ccc21
(d) CC(C)(C)n1ncc2c1C(=O)CC1(CCN(C(=O)c3ccn4ccnc4c3)CC1)C2 [Example 11A-67]
Input: Rank descending by pIC50. // rank by listing labels in the order requested
Output: c, d, b, a
